Provide the reported IC50 of each item.
test system: Vero; experiment: Cytotoxicity against African green monkey Vero cells measured after 72 hrs by CellTiter 96 aqueous non-radioactive cell proliferation assay; type: cell-based; settings: Chlorocebus sabaeus
Answers are plain numbers, in µg/mL.

* COc1ccn2nc(C)c(C(=O)NCc3ccc(-c4ccc(OC(F)(F)F)cc4)c(C(F)(F)F)c3)c2c1 | 11.6

Next, consider the following molecule.
Could you share which IC50 value was measured for COc1ccn2nc(C)c(C(=O)NCc3ccc(-c4ccc(OC(F)(F)F)cc4)c(C)c3)c2c1 ?
3.15

----------
assay: Half life in Sprague-Dawley rat at 2.5 mg/kg, iv by LC-MS/MS analysis; type: ADME, organism-based; settings: in vivo
assay endpoint: half-life
Give the number first and the unit second.

Could you share which half-life value was measured for COc1ccn2nc(C)c(C(=O)NCc3ccc(-c4ccc(OC(F)(F)F)cc4)cn3)c2c1 ?
3.49 h
